Details: 25.0 °C
log10 OH rate constant (cm³/molecule/s) by entry:
Write the value as a bare number.

CCC=C=O
-9.93
CCOC(C)=O
-11.8
CNN
-10.2
COC(C)OC
-11.1
CCCCC(C)=O
-11

QUERY: Give its log10 OH rate constant (cm³/molecule/s) value. Item: CNC
RESULT: -10.2

QUERY: Repeat with Sc1ccccc1
RESULT: -11

QUERY: Repeat with CC(C)S
RESULT: -10.4

QUERY: Repeat with N#Cc1ccccc1
RESULT: -12.5

QUERY: Repeat with C=C(C)c1ccccc1
RESULT: -10.3
